# System: BT-549 breast
# Test Details: NCI-60 one-dose screen, 48 h (100 = growth as untreated, 0 = no growth, -100 = all killed)
# Assay Conditions: 10 µM unless noted
About 83,000 compounds went through this panel and 20% of them were active in at least one assay; those are over-represented in the sample as a whole.
Measurement Label: growth (%)
Unit % implied. Number only.

Solved entries (count: 4):
Nc1nnc(-c2c[nH]c3ccc(Br)cc23)c(-c2c[nH]c3ncc(Br)cc23)n1; 35.4
CC(C)(C)OC(=O)/C=C/c1cccc2c1C(=O)NC(C)(c1cc3cc(Cl)ccc3oc1=O)N2 (centres undefined); 15.2
COc1cc(C2CC(c3ccc(S(=O)(=O)NCCNc4nc(Nc5ccc(F)cc5)nc(N(C)C)n4)cc3)=Nc3c(N)nc(N)nc3N2)cc(OC)c1OC (centres undefined); 62.8
Cn1cc(-c2nc(N)nnc2-c2c[nH]c3ccc(Br)cc23)c2cc(Br)cnc21; -33.4

Query :: Give growth for CC1(C)CC[C@]2(C(=O)O)CC[C@]3(C)C(=CCC4[C@@]5(C)C[C@@H](O)[C@@H]6OC(c7ccco7)OC[C@@]6(C)C5CC[C@]43C)C2C1 (some centres undefined)
Result :: 13.9

Query :: Indicate its recorded growth; the molecule in question is `COc1cc(-c2nc3cc(Cl)c(Cl)cc3[nH]2)ccc1OCc1nnc(-c2cccs2)o1`
Result :: 28.1

Query :: # return recorded growth for entry COc1cc(C2CC(c3cc(OC)c(OC)c(OC)c3)=NN2C(C)=O)ccc1OCc1ccccc1 (centres undefined)
Result :: 17.4

Query :: Output growth of CC1(c2cc3cc(Cl)ccc3oc2=O)NC(=O)c2c(/C=C/C(=O)OC3CC4CCC3(C)C4(C)C)cccc2N1 (centres undefined)
Result :: 59.3

Query :: Given COc1cc2c(c(OC)c1OC)C(=O)CC(c1cccc(NC(=O)c3cc(NC(=O)[C@@H](N)CO)ccc3C)c1)O2 (some centres undefined) , respond with its growth.
Result :: 121

Query :: Please give measured growth of the following entry: CC1(C)CC[C@]2(C(=O)Nc3ccc(Br)cc3)CC[C@]3(C)C(=CCC4[C@@]5(C)C[C@@H](O)[C@H](O)[C@@](C)(CO)C5CC[C@]43C)C2C1 (some centres undefined)
Result :: -35.4

Query :: Look up and report measured growth for this entry: `COc1ccc2[nH]c(O)c(N=NC(=O)COc3ccc(NC(=O)Nc4ccccc4)cc3)c2c1`
Result :: -36.4

Query :: Give the reported growth for this molecule. C=C1CCC2C3(C)COC(c4ccccc4)OC3CCC2(C)C1CC(Sc1ccccc1)C1=CCOC1=O (centres undefined)
Result :: -19

Query :: Report growth, nothing else, for this molecule: `N/C(=N\N=C\c1ccc([N+](=O)[O-])cc1)c1c(N)nc(=S)[nH]c1-c1ccc(Cl)cc1Cl`
Result :: 75.6

Query :: Give the reported growth for this molecule. `Cc1ccc(C(=O)CSc2nc3ccc(C)cc3c(=O)n2-c2ccc(F)cc2)cc1`
Result :: 73.9

Query :: Please look at this molecule and report its growth: `CNC(=O)c1cccc(NC(=O)c2ccc3c(c2)nnn3/C(C#N)=C/c2ccccn2)c1`
Result :: -98.7

Query :: Tell me its growth given CC12CC[C@@H]3[C@]4(C)COC(c5cn[nH]c5-c5ccc(Br)cc5)O[C@@H]4CC[C@@]3(C)[C@@H]1CC(C1=CCOC1=O)O2 (some centres undefined) as the entry.
Result :: 21.7

Query :: Note growth for the molecule shown: CCN1C(=O)N(CC)C2NNC(Sc3c(C(=O)O)c4ccccc4n(C4CCCC4)c3=O)=NC21 (centres undefined)
Result :: 6.1

Query :: Find the measured growth of `C#CCOc1ccc(/C=N/Nc2nc(-c3ccc(Cl)cc3)cs2)cc1OC` and report it.
Result :: 36

Query :: Quote growth reported for `O=C(Cn1c2c(sc1=O)[C@H]1[C@@H](O)[C@@H](O)[C@H](O)[C@@H]1CS2)N1CCOCC1` please.
Result :: 99.3

Query :: Please report growth for the following molecule: `NS(=O)(=O)c1ccc(NNC(=O)CCC(=O)c2ccccc2)cc1`
Result :: 104

Query :: Annotate the molecule `COc1cccc(-c2nc(Nc3ccc(S(N)(=O)=O)cc3)c3ccccc3n2)c1` with its measured growth.
Result :: 54.5
